# targetOrTestSystem: Aβ40 (Homo sapiens, UniProt P05067)
# Construct: 200 μM of a test compound and 20 μM of solubilized Aβ40
# Sequence (P05067 672-711 limits assumed): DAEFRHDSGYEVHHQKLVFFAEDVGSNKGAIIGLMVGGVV
# protocolDetails: mass spectroscopy (MS) assay, binding to Aβ
# Design: key: “+” = active; “−” = inactive; “pr” = promoting
# details: 200 μM test compound, 20 μM solubilized Aβ40, pH 7.4; ability to bind to Aβ
experimentalReadout: MS Assay

{"molecule": "N=C(N)c1cccc(COc2cccc3c(OCc4cccc(C(=N)N)c4)cccc23)c1 [Compound 77]", "experimentalValue": "+"}
{"molecule": "Cc1c(-c2ccc(C(=N)N)cc2)oc(-c2ccc(C(=N)N)cc2)c1C [Compound 57]", "experimentalValue": "+"}
{"molecule": "N=C(N)c1ccc2nc(-c3ccc(-c4ccc([N+](=O)[O-])cc4)o3)[nH]c2c1 [Compound 111]", "experimentalValue": "+"}
{"molecule": "Cc1cc(-c2nc3cc(C(=N)N)ccc3[nH]2)c(C)cc1-c1nc2cc(C(=N)N)ccc2[nH]1 [Compound 73]", "experimentalValue": "+"}
